- System: HOP-62 NSCLC
- ASSAY METHOD TEXT: NCI-60 one-dose screen, 48 h (100 = growth as untreated, 0 = no growth, -100 = all killed)
- CONDITION CONTEXT: 10 µM
The panel holds about 83,000 compounds, 20% with a hit somewhere; the sample as a whole holds those more often.
Listed here are molecules together with their documented growth.
Numbers only; they are read as %.

Answered examples (5):
| MOLECULE | TARGET DESC | growth [%] |
| --- | --- | --- |
| COc1ccc(-c2nc(-c3nc4ccc(C)cc4[nH]3)c3ccccn23)cc1 | HOP-62 NSCLC | 52 |
| COc1ccc2nc(/C=C/c3ccc(N(C)C)cc3)sc2c1 | HOP-62 NSCLC | 108 |
| CCc1ccc(-c2nnc(COc3ccc(-c4nc5ccc(C)cc5[nH]4)cc3OC)o2)cc1 | HOP-62 NSCLC | 32.6 |
| O=c1[nH]c(=O)n(C2C[C@@H](O)[C@@H](CO)O2)cc1F (some centres not stated) | HOP-62 NSCLC | 27.7 |
| CC(Oc1ccc(Cl)cc1)c1ccccc1 (configuration not stated) | HOP-62 NSCLC | 98.3 |

get_value(item= COC(=O)[C@]12CC[C@@H](C)[C@H](C)[C@@H]1C1=CC[C@@H]3[C@@]4(C)C[C@@H](O)[C@H](O)[C@@](C)(CO)[C@@H]4[C@H](O)C[C@@]3(C)[C@]1(C)CC2 , readout=growth) returns -59.5

get_value(item= Nc1nc2c(ncn2C2OC3COP(=O)(O)OC4C(COP(=O)(O)OC2C3O)OC(n2cnc3c(N)ncnc32)C4O)c(=O)[nH]1 (configuration not stated) , readout=growth) returns 94

get_value(item= C#Cc1ccc(-n2c(/C=C/c3cc(OC)c(OC)c(OC)c3)nc3ncccc3c2=O)cc1 , readout=growth) returns 66.2

get_value(item= CN1/C(=C\C(I)C(I)C2=[N+](C)c3ccccc3C2(C)C)C(C)(C)c2ccccc21 (configuration not stated) , readout=growth) returns 5.15

get_value(item= COc1cccc(-c2nnc(COc3ccc(-c4nc5ccccc5[nH]4)cc3OC)o2)c1 , readout=growth) returns 108

* * *

- System: SW-620 colon
- ASSAY METHOD TEXT: NCI-60 one-dose screen, 48 h (100 = growth as untreated, 0 = no growth, -100 = all killed)
- CONDITION CONTEXT: 10 µM
This is part of a sample that, as a whole, favours compounds with a hit. Of some 83,000 tested, about 20% had one in any assay.
Listed here are compounds together with their documented growth.
Numbers only; they are read as %.

Answered examples (5):
| COMPOUND | U | growth |
| --- | --- | --- |
| CCCCc1ccc(NC(=O)N(CCCl)N=O)cc1 | % | 93 |
| COc1ccc(-c2nc3sc(-c4ccccc4)c(-c4ccccc4)n3c2/C=C/c2ccc(F)cc2)cc1 | % | 95.5 |
| Cc1ccc(NS(=O)(=O)c2ccccc2)c(NS(=O)(=O)c2ccccc2)c1 | % | 95.1 |
| O=C(Nc1cccc(F)c1)Nc1cccc(Cl)c1 | % | 74 |
| Oc1ccc(/C=N\Nc2ccccn2)c(O)c1 | % | 35.3 |

get_value(item= Cc1nnc2c3nnc(-c4ccc(Cl)cc4)n3c3ccccc3n12 , readout=growth) returns 106

get_value(item= C(=C\c1nc2ccccc2s1)/c1ccc(N2CCOCC2)s1 , readout=growth) returns 101

get_value(item= C/C(=N\NC(N)=S)C(C)(C)O , readout=growth) returns 77.4

get_value(item= COC(=O)c1c(C)nc(Nc2nc3ccccc3s2)nc1-c1ccc(Cl)cc1Cl , readout=growth) returns 104

get_value(item= CCCCCc1cc[n+](CC(=O)c2ccc(Cl)cc2)cc1 , readout=growth) returns 83.2
